The following molecules are shown together with reported MIC against P. vulgaris values.
- Tested on: Proteus vulgaris
- experiment: MIC against Gram-negative bacteria: Proteus vulgaris
- Type: cell-based
- test_conditions: 96-well plate, 5×10^5 CFU/mL, 37° C., 10 h
Give a bare numeral; the unit µg/mL is implied.

INSERT INTO assay_data (molecule, measurement_type, value_measured) VALUES
  ('PRT499 (protein, listed as Homo sapiens) CNCHNKAKDCYYDESVAKQKKSLNTAGQFRGGGVCINCLQNTMGINCETCIDGYYRPHKVSPYEDEPCRP', 'MIC against P. vulgaris', 25);

Quick check: MIC against P. vulgaris of PRT587 (protein, listed as Homo sapiens) CFCHGHADRCAPKPGASAGPSTAVQVHDVCVCQHNTAGPNCERCAPFYNNRPWRPAEGQDAHECQR ?
50

Quick check: MIC against P. vulgaris of PRT551 (protein, listed as Homo sapiens) CNCYGHATDCYYDPEVDRRRASQSLDGTYQGGGVCIDCQHHTTGVNCERCLPGFYRSPNHPLDSPHVCRR ?
25

Quick check: MIC against P. vulgaris of PRT593 (protein, listed as Homo sapiens) CFCNGHASECRPMQKMRGDVFSPPGMVHGQCVCQHNTDGPNCERCKDFFQDAPWRPAADLQDNACRS ?
50

Quick check: MIC against P. vulgaris of PRT477 (protein, listed as Homo sapiens) LCSQALCSGHGRCVRRTSHPKALLLLNPASFSIQLTPGGGPLSLRGALSLGDQAQMAVEFKCRCYPGWQAPWCE ?
12.5

Data origin, for the record: patent US9833497B2
